- System: U251 CNS
Outcome codes: yes (active), no (inactive)

molecule: O=C(Nc1ccc(Cc2ccccc2)cc1)Nc1nn(C(=O)Nc2ccc(Cc3ccccc3)cc2)c2ccccc12
measured_on: U251 CNS
assigned_label: no

molecule: Cn1c(=O)c(Oc2ccc(F)cc2F)cc2cnc(NC(C)(C)CO)nc21
measured_on: U251 CNS
assigned_label: no

molecule: CCCc1n(Cc2ccc3ccccc3c2)cc[n+]1Cc1ccc2ccccc2c1
measured_on: U251 CNS
assigned_label: no

molecule: CSc1c(C2=C(c3cn(C)c4ccccc34)C(=O)NC2=O)c2ccccc2n1C
measured_on: U251 CNS
assigned_label: no

molecule: COC(=O)C1=C(O)[C@H](C(=O)OC)C2(O)C(C(=O)OC)[C@H](c3ccc(OC(=O)C(C)c4ccccc4)cc3)C[C@@H]1[C@@H]2C(=O)OC (some centres undefined)
measured_on: U251 CNS
assigned_label: no

molecule: COc1ccc2c3c(Nc4cccc(/C(C)=N\O)c4)[nH]c4ccccc4c-3c(N=O)c2c1
measured_on: U251 CNS
assigned_label: no

molecule: CCCCOC(=O)c1ccc(N)cc1
measured_on: U251 CNS
assigned_label: no

molecule: O=C(CCl)NCCNc1nccc(Nc2ccc(S(=O)(=O)Nc3ccccn3)cc2)n1
measured_on: U251 CNS
assigned_label: no

molecule: O=C(CC1(O)C(=O)N(Cc2ccccc2)c2ccc(Cl)cc21)c1ccc(C(=O)NCC2CCC3(CC2)OOC2(CCCCC2)OO3)cc1 (centres undefined)
measured_on: U251 CNS
assigned_label: yes

* * *

- Tested on: OVCAR-4 ovarian
- assay_notes: NCI tumour cell line growth inhibition, 48 h; in the data active = GI50 below about 0.43 µM; inactive = the rest
Outcome codes: active, inactive

molecule: COC1C(O)CC(OC2CC(OC3CC(O[C@@H]4C(=O)c5c(cc6cc(OC7CC(OC8CC(O)C(O)C(C)O8)C(O)C(C)O7)c(C)c(O)c6c5O)CC4[C@H](OC)C(=O)O)OC(C)C3O)OC(C)C2O)OC1C (stereo partly drawn)
assigned_label: inactive
--
molecule: C[C@@]1(C(=O)O)CCC[C@]2(C)C1CC[C@@]13C[C@@](O)(CC[C@]12O)[C@@]1(CO1)C3 (stereo partly drawn)
assigned_label: inactive
--
molecule: CN(C)CCCN(CCC1CCCCC1)CCC1CCCCC1
assigned_label: inactive
--
molecule: CCCCOC(=O)c1ccc(N)cc1
assigned_label: inactive
--
molecule: Cc1nc2c(c(N3CCCc4ccccc43)n1)CCC2
assigned_label: active
--
molecule: NC(=NCc1ccccc1)C(N=Nc1ccccc1)C(=O)NCc1ccccc1 (stereo not drawn)
assigned_label: inactive
--
molecule: Cn1c(=O)c(Oc2ccc(F)cc2F)cc2cnc(NC(C)(C)CO)nc21
assigned_label: inactive
--
molecule: O=S(=O)(CCN1CCOCC1)Nc1cc(-c2ccc3ncnc(Nc4ccc(F)c(Cl)c4)c3c2)cnc1Cl
assigned_label: inactive
--
molecule: CN(CCCCCl)P(=O)(OCCS(=O)(=O)CC(NC(=O)CCC(N)C(=O)O)C(=O)NC(C(=O)O)c1ccccc1)OCC1OC(n2ccc(N)nc2=O)C(O)C1O (stereo not drawn)
assigned_label: inactive
--
molecule: CCN(CC)CCCC(C)Nc1ccnc2cc(Cl)ccc12 (stereo not drawn)
assigned_label: inactive
--
molecule: CC1=CC(C)=NN=C(N)N1S(=O)(=O)c1cc(C)c(Cl)cc1SCc1ccccc1
assigned_label: inactive
--
molecule: CCN1CCC(Nc2ccnc3cc(Cl)ccc23)CC1
assigned_label: inactive
--
molecule: COc1cc(OC)cc(-c2ccc(-c3ccc(C(=N)N)cn3)o2)c1
assigned_label: inactive

Data origin, for the record: PubChem BioAssay (NCI)
